B1: NCF4 (parent)
chain: FGPDSKSSALACTLPTLPAKVYVG

# Variants of: B1
# assay: protein stability index of a GFP-peptide fusion (GPS, HEK-293T) (PSI 1-6); higher = more stable;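 further: lentivirally expressed fusions sorted by FACS into six bins by GFP to DsRed ratio, PSI derived from sequencing read proportions per bin multiplied by bin number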
# conditionSummary: c terminus: a fixed tail appended
Returns one of YES or NO; YES when protein stability index is >= 2.

mutantCode	cat
T13Y	NO

Given the entry "A9M" , answer whether its protein stability index meets or surpasses 2.
NO

Given the entry "P3E" , answer whether its protein stability index meets or surpasses 2.
YES

Given the entry "L17W" , answer whether its protein stability index meets or surpasses 2.
NO

Given the entry "T13E" , answer whether its protein stability index meets or surpasses 2.
YES

Given the entry "L10V" , answer whether its protein stability index meets or surpasses 2.
YES

Given the entry "P15Y" , answer whether its protein stability index meets or surpasses 2.
YES

Given the entry "A9P" , answer whether its protein stability index meets or surpasses 2.
NO

Given the entry "G2Q" , answer whether its protein stability index meets or surpasses 2.
NO
